Assay: Phase 1 study LXBA, multiple-dose steady-state plasma PK in healthy subjects
Type: in vivo, human
Settings: human, in vivo; steady state, 400 mg BID (800 mg), n = 6, geometric mean
parameter: Cmax (µg/mL)
Kindly provide the numeric value in µg/mL only, without the unit symbol.

Lookup result for Cc1cccnc1OCC(C)(C)NC(=O)[C@H]1[C@@H]2CNC[C@@H]21.O=C(O)C(O)C(O)C(=O)O [Example 5] ; measured Cmax: 3.24

###

Test: Phase 1 study LXBA, multiple-dose steady-state plasma PK in healthy subjects
Assay type: in vivo, human
Conditions: human, in vivo; steady state, 600 mg BID, = 2 × AUC(0-τ); read-out: AUC(0-24)
parameter: AUC(0-t) (ng·h/mL)
Kindly provide the numeric value in ng·h/mL only, without the unit symbol.

Lookup result for Cc1cccnc1OCC(C)(C)NC(=O)[C@H]1[C@@H]2CNC[C@@H]21.O=C(O)C(O)C(O)C(=O)O ; measured AUC(0-t): 77400
